TESTED SYSTEM: FAAH (Mus musculus, UniProt O08914)
Construct: Proteomes (mouse brain membrane fraction or cell lysates); from tissue; host or cells: mouse brain membrane fraction (or cell lysates)
Sequence (O08914 1-579): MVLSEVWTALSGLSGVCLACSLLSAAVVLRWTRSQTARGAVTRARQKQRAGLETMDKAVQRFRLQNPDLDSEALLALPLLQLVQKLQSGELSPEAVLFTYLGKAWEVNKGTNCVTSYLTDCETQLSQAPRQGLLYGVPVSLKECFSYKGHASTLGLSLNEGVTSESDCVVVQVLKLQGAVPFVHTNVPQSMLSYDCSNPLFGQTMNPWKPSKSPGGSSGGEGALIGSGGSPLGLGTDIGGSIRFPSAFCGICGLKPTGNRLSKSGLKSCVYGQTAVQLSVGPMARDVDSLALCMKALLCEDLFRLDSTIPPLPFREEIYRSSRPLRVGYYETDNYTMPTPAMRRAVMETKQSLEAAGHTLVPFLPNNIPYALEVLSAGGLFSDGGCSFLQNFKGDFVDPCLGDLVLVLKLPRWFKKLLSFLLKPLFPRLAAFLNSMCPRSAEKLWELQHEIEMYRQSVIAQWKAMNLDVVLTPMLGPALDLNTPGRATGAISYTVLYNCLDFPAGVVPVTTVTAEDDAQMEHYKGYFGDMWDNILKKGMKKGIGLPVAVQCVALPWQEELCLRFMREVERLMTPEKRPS
PROCEDURE DETAILS: In vitro competitive activity-based protein profiling (mouse), FAAH gel band
Format: biochemical
CONDITION DESCRIPTION: read-out: FAAH % inh. 1 μM
Can you tell me inhibition at 1 µM for the items I'm about to list?

INPUT: Provide inhibition at 1 µM, tested on FAAH (Mus musculus, UniProt O08914), for CS(=O)(=O)Nc1ccn(C(=O)N2CCN(Cc3ccc(-c4ccccc4)cc3Cl)CC2)n1 [Example 158] .
OUTPUT: ≥ 75%

INPUT: Provide inhibition at 1 µM, tested on FAAH (Mus musculus, UniProt O08914), for CS(=O)(=O)Nc1ccn(C(=O)N2CCN(Cc3cc(N4CCCC4)ccc3Cl)CC2)n1 [Example 194] .
OUTPUT: 0 to 25%

INPUT: Provide inhibition at 1 µM, tested on FAAH (Mus musculus, UniProt O08914), for CS(=O)(=O)Nc1ccn(C(=O)N2CCN(Cc3ccc(C(F)(F)F)cc3N3CCC4(CCN(S(C)(=O)=O)CC4)C3)CC2)n1 [Example 235] .
OUTPUT: 0 to 25%

INPUT: Provide inhibition at 1 µM, tested on FAAH (Mus musculus, UniProt O08914), for CC(=O)Nc1ccn(C(=O)N2CCC3(CCCN3Cc3ccc(C(F)(F)F)cc3N3CCCC3)CC2)n1 [Example 8] .
OUTPUT: 0 to 25%

----------
TESTED SYSTEM: MAGL (Mus musculus, UniProt O35678)
Construct: Proteomes (mouse brain membrane fraction or cell lysates); from tissue; host or cells: mouse brain membrane fraction (or cell lysates)
Sequence (O35678 whole entry): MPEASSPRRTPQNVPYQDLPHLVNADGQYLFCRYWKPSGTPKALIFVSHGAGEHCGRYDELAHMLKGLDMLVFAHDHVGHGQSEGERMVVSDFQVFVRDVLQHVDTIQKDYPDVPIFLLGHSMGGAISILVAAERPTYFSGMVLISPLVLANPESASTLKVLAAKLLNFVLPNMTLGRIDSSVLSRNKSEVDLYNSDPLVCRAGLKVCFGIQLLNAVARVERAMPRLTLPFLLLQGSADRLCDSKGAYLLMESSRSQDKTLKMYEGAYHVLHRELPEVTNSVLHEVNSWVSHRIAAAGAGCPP
PROCEDURE DETAILS: Mouse brain proteomes from inhibitor treated mice (oral gavage, sacrificed 4 h after administration)
Type: in vivo
CONDITION DESCRIPTION: read-out: MAGL % inh. 5 mg/kg
Can you tell me inhibition at 5 mg/kg for the items I'm about to list?

INPUT: Entry CS(=O)(=O)Nc1ccn(C(=O)N2CCN(Cc3ccc(Cl)cc3N3CCCC3)CC2)n1 [Example 127] needs its inhibition at 5 mg/kg filled in; supply it.
OUTPUT: ≥ 75%

INPUT: Entry CC(=O)Nc1ccn(C(=O)N2CCC3(CCCN3Cc3ccc(Cl)c(N4CCOCC4)c3)CC2)n1 [Example 103] needs its inhibition at 5 mg/kg filled in; supply it.
OUTPUT: 0 to 25%

INPUT: Entry CC(=O)Nc1ccn(C(=O)N2CCC3(CCCN3Cc3cc(Cl)cc(N4CCCC4)c3)CC2)n1 [Example 63] needs its inhibition at 5 mg/kg filled in; supply it.
OUTPUT: 25 to 50%

INPUT: Entry CC(=O)Nc1ccn(C(=O)N2CCN(Cc3ccc(C(F)(F)F)cc3N3CCN(C(C)=O)CC3)CC2)n1 [Example 42] needs its inhibition at 5 mg/kg filled in; supply it.
OUTPUT: 0 to 25%

INPUT: Entry CC(=O)Nc1ccn(C(=O)N2CCC3(CCCN3Cc3ccc(C(F)(F)F)cc3N3CCC(F)CC3)CC2)n1 [Example 12] needs its inhibition at 5 mg/kg filled in; supply it.
OUTPUT: 0 to 25%

INPUT: Entry CC(=O)Nc1ccn(C(=O)N2CCN(Cc3ccc(C(F)(F)F)cc3N3CCC4(C3)CN(S(C)(=O)=O)C4)CC2)n1 [Example 44] needs its inhibition at 5 mg/kg filled in; supply it.
OUTPUT: 0 to 25%

INPUT: Entry CC(=O)Nc1ccn(C(=O)N2CCN(Cc3ccc(Cl)cc3N3CCC4(CCOCC4)C3)CC2)n1 [Example 56] needs its inhibition at 5 mg/kg filled in; supply it.
OUTPUT: 25 to 50%
